The measurements presented in this section are drawn from patent US20260217701A1.

assay: Rat PK study #1 (Compound A PO, methylcellulose vs propylene glycol formulation); type: in vivo, Lewis rats; settings: male, rat, plasma; Lewis rats, PO 10 mg/kg, propylene glycol/Vitamin E TPGS/water formulation, individual animals
measure_name: AUC(0-inf) (ng·h/mL)
Numbers only, in ng·h/mL.

In: What value of AUC(0-inf) has been reported for the following molecule? Cn1cc(-c2ccccc2)c(-c2cn(C)c(=O)c3[nH]c(-c4cnn(C(F)(F)F)c4)cc23)cc1=O [Compound A]
Out: 3510

###

experiment: Dog PK study #4 (Compound A PO daily 14 days, 1/3/10 mg/kg; toxicokinetics, platelet counts); assay type: in vivo, beagle dogs; conditions: beagle, dog, plasma, oral; after daily administration for 14 days, 1 mg/kg, Male, 4 h
measure_name: concentration at 4 h (ng/mL)
Answers are plain numbers, in ng/mL.

In: What value of concentration at 4 h has been reported for the following molecule? `Cn1cc(-c2ccccc2)c(-c2cn(C)c(=O)c3[nH]c(-c4cnn(C(F)(F)F)c4)cc23)cc1=O`
Out: 44.8
